Attribute: PGI d5 (relative PGI release)
# Tested on: E. multilocularis metacestode vesicles
# Assay name: Phosphoglucose isomerase (PGI) release assay (damage-marker release) on metacestode vesicles
# Type: cell-based, Echinococcus multilocularis
# Study conditions: overview screen, 10 μM, singlets, 5 days, relative to 0.1 % Triton X-100, DMSO subtracted
Your answer should be a plain number; it is taken to be in %.

{"Compound": "O=[N+]([O-])c1ccc2c(CCc3c[nH]c4ccccc34)c[nH]c2c1", "PGI d5 (relative PGI release) (%)": 1.886}
{"Compound": "CC(Cc1ccccc1)C(=O)Nc1ccc(Cl)cc1C(=O)O (centres unmarked)", "PGI d5 (relative PGI release) (%)": -1.72}

Write down the reported PGI d5 (relative PGI release) of N=c1n(CCN2CCCCC2)c2ccccc2n1CC(O)COc1ccc(Cl)cc1Cl (centres unmarked) , test system: E. multilocularis metacestode vesicles. 6.943

Record "Cc1cc(NS(=O)(=O)c2ccc(-c3ccc(F)cc3F)cc2)no1" : what is its PGI d5 (relative PGI release) with E. multilocularis metacestode vesicles? -2.099

Lookup: PGI d5 (relative PGI release) / E. multilocularis metacestode vesicles / "O=C1NC(=S)N/C1=C\c1cc(Br)cc(Br)c1O" 1.516

Any idea what PGI d5 (relative PGI release) came out for COc1ccc(COc2cc3oc(=O)c4cc(C(C)O)ccc4c3cc2OC)cc1 (centres unmarked) on E. multilocularis metacestode vesicles? -0.002121

Param readout = PGI d5 (relative PGI release); param system = E. multilocularis metacestode vesicles; param query = "OB1OCc2c1ccc(Cl)c2F" ; response: value -2.405

Record lookup: for E. multilocularis metacestode vesicles, what PGI d5 (relative PGI release) belongs to "Cc1cc(CCOc2c(C)cc(-c3nnn(C)n3)cc2C)on1" ? -0.7312

Find PGI d5 (relative PGI release) (E. multilocularis metacestode vesicles) for the entry "COc1ccc2cc3[n+](cc2c1OCCN(CCn1cncn1)Cc1ccc(F)cc1F)CCc1cc2c(cc1-3)OCO2" 1.275
